compound: Cc1ccc(C(Nc2c(Nc3cccc4nn[nH]c34)c(=O)c2=O)C2(C)COC2)o1 (centres unmarked)
melting point: 178 to 180 °C

compound: Cc1ccc(C(Nc2c(Nc3cccc(C(=O)O)c3O)c(=O)c2=O)C2(C)COC2)o1 (centres unmarked)
melting point: 180 to 185 °C

compound: COC(=O)C1CCCCN1C(=O)c1cccc(Nc2c(NC(c3ccc(C)o3)C3(C)COC3)c(=O)c2=O)c1 (centres unmarked)
melting point: 130 to 132 °C

compound: Cc1ccc(C(Nc2c(Nc3cccc(C(=O)N(C)C)c3O)c(=O)c2=O)C2(C)CN(C(=O)OC(C)(C)C)C2)o1 (centres unmarked)
melting point: 162 to 165 °C

compound: Cc1cc(C(Nc2c(Nc3cccc(C(=O)N(C)C)c3O)c(=O)c2=O)C2(C)COC2)oc1C (centres unmarked)
melting point: 207 to 209 °C

compound: Cc1ccc(C(Nc2c(Nc3cccc(C(=O)N4CCC(O)C4)c3)c(=O)c2=O)C2(C)COC2)o1 (centres unmarked)
melting point: 242 to 245 °C

compound: Cc1ccc(C(Nc2c(Nc3cccc(C(C)O)c3O)c(=O)c2=O)C2(C)COC2)o1 (centres unmarked)
melting point: 129 to 131 °C

compound: Cc1ccc(C(Nc2c(Nc3cccc(C(=O)N(C)C)c3O)c(=O)c2=O)C2(C)COC2)o1 (centres unmarked)
melting point: 196 to 198 °C

compound: COC(=O)[C@@H]1CCCN1C(=O)c1cccc(Nc2c(NC(c3ccc(C)o3)C3(C)COC3)c(=O)c2=O)c1Cl (some centres unmarked)
melting point: 148 to 158 °C

compound: Cc1ccc(C(Nc2c(Nc3cccc(C(=O)N4CCC[C@@H]4C(=O)OC(C)(C)C)c3O)c(=O)c2=O)C2(C)COC2)o1 (some centres unmarked)
melting point: 162 to 164 °C

compound: Cc1ccc(C(Nc2c(Nc3cccc(C(=O)N(C)C)c3O)c(=O)c2=O)C2(CF)COC2)o1 (centres unmarked)
melting point: 186 to 188 °C
